Taken from patent US20240409645A1.

System Name: T1, human IL-2Rβ (human, UniProt P14784 27-240, limits assumed)
T1 construct: Recombinant human IL-2Rβ protein, coated on ELISA plates or immobilized on a CM5 chip; also called hu IL-2R; interleukin 2 receptor β-chain
T1 sequence: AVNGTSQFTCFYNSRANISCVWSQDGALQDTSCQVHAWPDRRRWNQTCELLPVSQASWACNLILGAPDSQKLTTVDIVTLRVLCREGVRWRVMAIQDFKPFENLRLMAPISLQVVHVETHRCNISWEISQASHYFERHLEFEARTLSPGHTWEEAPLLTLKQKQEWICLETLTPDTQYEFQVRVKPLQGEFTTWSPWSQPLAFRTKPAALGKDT
Test Description: P.E. binding ELISA, human IL-2Rβ coated
Assign OD450 nm (P.E. binding ELISA) to each entry below.

// query Field request: OD450 nm (P.E. binding ELISA) | item: FJ1427_P035MP06H05 (VHH, Soluble VHH in periplasmic extract (P.E.); also called Clone nr; 520) VHH: QVQLVESGGRLVQAGGSLRLSCVVSGDVFVRYTMAWFRQAPGKEREFVAVVTDSGRTTEYVGSVKGRFTVSRDNAKNTVYLQMNNLKPEDTAVYYCAANTDYFQIRSVDNNAWGQGTQVTVSS
// result 0.59 OD450 nm

// query Field request: OD450 nm (P.E. binding ELISA) | item: FJ1427 P035MP06B06 (VHH, Soluble VHH in periplasmic extract (P.E.); also called Clone nr) VHH: EVQLVESGGGLVQAGGPLRLSCAVSGDVFVRYTMAWFRQAPGKEREFVASVTDSGRTTEYVDSVKGRFTVSRDNAKNTAYLQMNNLKPEDTAVYYCAANTDYFQIRSLDLNTWGQGTQVTVSS
// result 1.42 OD450 nm

// query Field request: OD450 nm (P.E. binding ELISA) | item: FJ1427 P035MP06D08 (VHH, Soluble VHH in periplasmic extract (P.E.); also called Clone nr; 540) VHH: QVQLVESGGGLVQAGGSLRLSCAVSGDVFVRYTMAWFRQAPGKEREFVASVTDSGRTTEYVDSVKGRFTVSRDNAKNTAYLQMNNLKPEDTAVYYCAANTDYFQIRSLDLNTWGQGTQVTVSL
// result 0.836 OD450 nm

// query Field request: OD450 nm (P.E. binding ELISA) | item: FJ1427_P035MP06A05 (VHH, Soluble VHH in periplasmic extract (P.E.); also called Clone nr) VHH: QVQLVESGGGLVQAGGSLRLSCAVSGDVFVRYTMAWFRQAPGKEREFVASVTDSGRTTDYVHSVKGRFTVSRDNAKNTVYLQMNNLKPEDTAVYYCAANTDYFQIKSLDANTWGQGTQVTVSS
// result 0.149 OD450 nm
